experiment: Clearance in Mongrel dog at 3 mg/kg, po or 1 mg/kg, iv; format: ADME, organism-based, Canis lupus familiaris; conditions: in vivo

>  <itemSmiles>
COc1cncc(C(=O)NC2(C(=O)N[C@H](C)c3ccc(-n4nc(Cl)c5ccccc54)cc3F)CC2)c1

>  <clearance>
5.5 mL/min/kg

$$$$
>  <itemSmiles>
COc1cc(C(=O)NC2(C(=O)N[C@H](C)c3ccc(-n4nc(Cl)c5ccccc54)cc3F)CC2)on1

>  <clearance>
1.3 mL/min/kg

$$$$
>  <itemSmiles>
C[C@@H](NC(=O)C1(NC(=O)c2cncc(Cl)n2)CC1)c1ccc(-n2nc(Cl)c3ccccc32)cc1F

>  <clearance>
10.5 mL/min/kg

$$$$
>  <itemSmiles>
C[C@@H](NC(=O)C1(NC(=O)c2cncc(Br)c2)CC1)c1ccc(-n2nc(Cl)c3ccccc32)cc1F

>  <clearance>
3.8 mL/min/kg

$$$$
>  <itemSmiles>
C[C@@H](NC(=O)C1(NC(=O)c2cncs2)CC1)c1ccc(-n2nc(Cl)c3ccccc32)cc1F

>  <clearance>
1.1 mL/min/kg

$$$$
>  <itemSmiles>
C[C@@H](NC(=O)C1(NC(=O)c2cncc(Cl)c2)CC1)c1ccc(-n2nc(Cl)c3ccccc32)cc1F

>  <clearance>
3.1 mL/min/kg

$$$$

###

experiment: Clearance in Mongrel dog at 3 mg/kg, po or 1 mg/kg, iv; type: ADME, organism-based, Canis lupus familiaris; conditions: in vivo
observable: clearance (mL/min/kg)

>  <itemSmiles>
C[C@@H](NC(=O)C1(NC(=O)c2ccc(Br)nc2)CC1)c1ccc(-n2nc(Cl)c3ccccc32)cc1F

>  <observable>
clearance

>  <quantityUnit>
mL/min/kg

>  <testValue>
2.6

$$$$
>  <itemSmiles>
COc1ncc(C(=O)NC2(C(=O)N[C@H](C)c3ccc(-n4nc(Cl)c5ccccc54)cc3F)CC2)s1

>  <observable>
clearance

>  <quantityUnit>
mL/min/kg

>  <testValue>
1.7

$$$$
>  <itemSmiles>
Cc1nnsc1C(=O)NC1(C(=O)N[C@H](C)c2ccc(-n3nc(Cl)c4ccccc43)cc2F)CC1

>  <observable>
clearance

>  <quantityUnit>
mL/min/kg

>  <testValue>
9.6

$$$$
>  <itemSmiles>
Cc1cncc(C(=O)NC2(C(=O)N[C@H](C)c3ccc(-n4nc(Cl)c5ccccc54)cc3F)CC2)c1

>  <observable>
clearance

>  <quantityUnit>
mL/min/kg

>  <testValue>
4.3

$$$$

###

experiment: Half life in Mongrel dog at 3 mg/kg, po or 1 mg/kg, iv; assay type: ADME, organism-based, Canis lupus familiaris; conditions: in vivo

>  <itemSmiles>
C[C@@H](NC(=O)C1(NC(=O)c2cncc(Cl)n2)CC1)c1ccc(-n2nc(Cl)c3ccccc32)cc1F

>  <half-life>
15.1 h

$$$$
>  <itemSmiles>
COc1ncc(C(=O)NC2(C(=O)N[C@H](C)c3ccc(-n4nc(Cl)c5ccccc54)cc3F)CC2)s1

>  <half-life>
8.3 h

$$$$
>  <itemSmiles>
C[C@@H](NC(=O)C1(NC(=O)c2cncc(Cl)c2)CC1)c1ccc(-n2nc(Cl)c3ccccc32)cc1F

>  <half-life>
6 h

$$$$
>  <itemSmiles>
C[C@@H](NC(=O)C1(NC(=O)c2ccc(Br)nc2)CC1)c1ccc(-n2nc(Cl)c3ccccc32)cc1F

>  <half-life>
7.1 h

$$$$
>  <itemSmiles>
Cc1nnsc1C(=O)NC1(C(=O)N[C@H](C)c2ccc(-n3nc(Cl)c4ccccc43)cc2F)CC1

>  <half-life>
2.4 h

$$$$
>  <itemSmiles>
C[C@@H](NC(=O)C1(NC(=O)c2cncs2)CC1)c1ccc(-n2nc(Cl)c3ccccc32)cc1F

>  <half-life>
4.3 h

$$$$
>  <itemSmiles>
C[C@@H](NC(=O)C1(NC(=O)c2cncc(Br)c2)CC1)c1ccc(-n2nc(Cl)c3ccccc32)cc1F

>  <half-life>
7.6 h

$$$$
>  <itemSmiles>
Cc1cncc(C(=O)NC2(C(=O)N[C@H](C)c3ccc(-n4nc(Cl)c5ccccc54)cc3F)CC2)c1

>  <half-life>
2.6 h

$$$$
>  <itemSmiles>
COc1cc(C(=O)NC2(C(=O)N[C@H](C)c3ccc(-n4nc(Cl)c5ccccc54)cc3F)CC2)on1

>  <half-life>
20.8 h

$$$$
>  <itemSmiles>
COc1cncc(C(=O)NC2(C(=O)N[C@H](C)c3ccc(-n4nc(Cl)c5ccccc54)cc3F)CC2)c1

>  <half-life>
2.3 h

$$$$
